# Target system: Recombinant ROCK2 (amino acids 1-552) (Homo sapiens (Human), UniProt O75116)
# Sequence (O75116 1-552): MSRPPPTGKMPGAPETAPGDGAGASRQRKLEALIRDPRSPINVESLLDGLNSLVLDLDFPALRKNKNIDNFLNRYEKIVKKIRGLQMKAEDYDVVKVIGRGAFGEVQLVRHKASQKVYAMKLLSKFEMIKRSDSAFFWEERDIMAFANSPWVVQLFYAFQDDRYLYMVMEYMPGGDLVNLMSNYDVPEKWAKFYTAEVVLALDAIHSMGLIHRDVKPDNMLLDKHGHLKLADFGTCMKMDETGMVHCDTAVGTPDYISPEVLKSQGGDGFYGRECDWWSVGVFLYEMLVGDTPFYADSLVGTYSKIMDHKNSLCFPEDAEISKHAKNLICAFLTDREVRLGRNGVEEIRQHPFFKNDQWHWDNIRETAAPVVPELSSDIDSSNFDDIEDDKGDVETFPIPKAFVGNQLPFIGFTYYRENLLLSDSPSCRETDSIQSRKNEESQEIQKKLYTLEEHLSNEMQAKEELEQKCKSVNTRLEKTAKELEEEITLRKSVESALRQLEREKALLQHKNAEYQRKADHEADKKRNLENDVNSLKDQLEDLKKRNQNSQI
# Test method notes: Z′-Lyte kinase assay, ROCK2
# Assay type: biochemical
# Description: Determination of Compound's ROCK Inhibitory Activity In Vitro (Z'Lyte Assay). Recombinant ROCK1 (amino acids 1-535) and ROCK2 (amino acids 1-552) proteins were purchased from ThermoFisher Scientific. Compound's activities were measured by Z′-lyte kinase kit (ThermoFisher Scientific) and IC50 was calculated In vitro activities for the compounds were measured with Z′-lyte kinase kit (ThermoFisher Scientific). […] In cell pMLC IC50s were calculated with data obtained from A7R5 cell experiments. […]
Listed here: items and their measured IC50.

Problem: Let me know recorded IC50 for `CN(C)c1nc(N2C3CCC2CNC3)nc(Nc2ccc3[nH]ncc3c2)c1F` , thanks.
Result: 0.0001 µM

Problem: Let me know recorded IC50 for Fc1cnc(N2CC3CNC3C2)nc1Nc1ccc2[nH]ncc2c1 (stereo not shown) , thanks.
Result: 0.035 µM

Problem: Let me know recorded IC50 for `c1cc(Nc2ccc(-c3nnc[nH]3)cc2)nc(N2CCNCC2)n1` , thanks.
Result: > 10 µM

Problem: Let me know recorded IC50 for `c1cncc(-c2cccc(Nc3ccnc(N4CCNCC4)n3)c2)c1` , thanks.
Result: > 10 µM

Problem: Let me know recorded IC50 for `Cc1nc(N2C3CCC2CNC3)nc(Nc2ccc3[nH]ncc3c2)c1F` , thanks.
Result: 0.0022 µM

Problem: Let me know recorded IC50 for `c1cc(-c2ccc(Nc3nc(N4C5CNCC4C5)nc4c3COC4)cc2)ccn1` , thanks.
Result: > 1 µM

Problem: Let me know recorded IC50 for `CN(C)c1cc(Nc2cc3cn[nH]c3cc2F)nc(N2C3CCC2CNC3)n1` , thanks.
Result: 0.0059 µM

Problem: Let me know recorded IC50 for `c1cc(-c2ccc(Nc3nc(N4C5CCC4CNC5)nc4c3CNC4)cc2)ccn1` , thanks.
Result: > 1 µM

Problem: Let me know recorded IC50 for `O=c1ccc(-c2ccc(Nc3ccnc(N4CCNCC4)n3)cc2)n[nH]1` , thanks.
Result: 1.9 µM

====

# Target system: Recombinant ROCK2 (amino acids 1-552) (Homo sapiens (Human), UniProt O75116)
# Test method notes: Z′-Lyte kinase assay, ROCK2
# Assay type: biochemical
# Experimental context: 9 points 2-fold serial dilution
Measured endpoint: pIC50
Here pIC50 is given on a logarithmic scale as minus log10 of the concentration in mol/L.

Reference set, count: 3
1. CCC1CN(c2nccc(Nc3ccc(-c4ccncc4)cc3)n2)CCCN1 (stereo not shown)	7.36
2. CCC1CN(c2nccc(Nc3ccc4[nH]ncc4c3)n2)CCN1 (stereo not shown)	6.84
3. Fc1cnc(N2CCNC3(CC3)C2)nc1Nc1ccc2[nH]ncc2c1	6.25

Here's the next entry for you.
Problem: Give pIC50 only, for CC1CN(c2nccc(Nc3ccc(-c4ccncc4)cc3)n2)CCCN1 (stereo not shown) , using Recombinant ROCK2 (amino acids 1-552) (Homo sapiens (Human), UniProt O75116) data.
Result: 6.92

====

# Target system: Recombinant ROCK2 (amino acids 1-552) (Homo sapiens (Human), UniProt O75116)
# Test method notes: Z′-Lyte kinase assay, ROCK2
# Assay type: biochemical
# Method: Determination of Compound's ROCK Inhibitory Activity In Vitro (Z'Lyte Assay). Recombinant ROCK1 (amino acids 1-535) and ROCK2 (amino acids 1-552) proteins were purchased from ThermoFisher Scientific. Compound's activities were measured by Z′-lyte kinase kit (ThermoFisher Scientific) and IC50 was calculated In vitro activities for the compounds were measured with Z′-lyte kinase kit (ThermoFisher Scientific). […] In cell pMLC IC50s were calculated with data obtained from A7R5 cell experiments. […]
Listed here: items and their measured IC50.
Write the answer as a number in nM, unit excluded.

Reference set, count: 7
1) Cc1cc(Nc2ccc3[nH]ncc3c2)nc(N2CC3CNC3C2)n1 (stereo not drawn)	11
2) COc1cccc(CN(C)C2CCCN(c3nccc(Nc4ccc5[nH]ncc5c4)n3)C2)c1 (stereo not drawn)	747
3) Cc1cc(Nc2ccc3[nH]ncc3c2)nc(N2CC3CNC(C3)C2)n1 (stereo not drawn)	18
4) Fc1cc2[nH]ncc2cc1Nc1nc(N2C3CNCC2C3)ncc1Cl	45
5) CN(C)c1nc(N2C3CCC2CNC3)nc(Nc2ccc3[nH]ncc3c2)c1Cl	1.7
6) COc1cc2[nH]ncc2cc1Nc1nc(N2C3CCC2CNC3)ncc1Cl	160
7) c1ccc(CNC2CCCN(c3nccc(Nc4ccc5[nH]ncc5c4)n3)C2)cc1 (stereo not drawn)	1800

Here's the next entry for you.
Problem: Let me know recorded IC50 for `c1cc2[nH]ncc2cc1Nc1nc(N2C3CCC2CNC3)nc2c1CNC2` , thanks.
Result: 1.2
